Source listed as patent US11981658B2.

- MEASURED_TARGET: EGFR wildtype (WT) (Homo sapiens, UniProt P00533)
- Sequence (P00533 25-1210): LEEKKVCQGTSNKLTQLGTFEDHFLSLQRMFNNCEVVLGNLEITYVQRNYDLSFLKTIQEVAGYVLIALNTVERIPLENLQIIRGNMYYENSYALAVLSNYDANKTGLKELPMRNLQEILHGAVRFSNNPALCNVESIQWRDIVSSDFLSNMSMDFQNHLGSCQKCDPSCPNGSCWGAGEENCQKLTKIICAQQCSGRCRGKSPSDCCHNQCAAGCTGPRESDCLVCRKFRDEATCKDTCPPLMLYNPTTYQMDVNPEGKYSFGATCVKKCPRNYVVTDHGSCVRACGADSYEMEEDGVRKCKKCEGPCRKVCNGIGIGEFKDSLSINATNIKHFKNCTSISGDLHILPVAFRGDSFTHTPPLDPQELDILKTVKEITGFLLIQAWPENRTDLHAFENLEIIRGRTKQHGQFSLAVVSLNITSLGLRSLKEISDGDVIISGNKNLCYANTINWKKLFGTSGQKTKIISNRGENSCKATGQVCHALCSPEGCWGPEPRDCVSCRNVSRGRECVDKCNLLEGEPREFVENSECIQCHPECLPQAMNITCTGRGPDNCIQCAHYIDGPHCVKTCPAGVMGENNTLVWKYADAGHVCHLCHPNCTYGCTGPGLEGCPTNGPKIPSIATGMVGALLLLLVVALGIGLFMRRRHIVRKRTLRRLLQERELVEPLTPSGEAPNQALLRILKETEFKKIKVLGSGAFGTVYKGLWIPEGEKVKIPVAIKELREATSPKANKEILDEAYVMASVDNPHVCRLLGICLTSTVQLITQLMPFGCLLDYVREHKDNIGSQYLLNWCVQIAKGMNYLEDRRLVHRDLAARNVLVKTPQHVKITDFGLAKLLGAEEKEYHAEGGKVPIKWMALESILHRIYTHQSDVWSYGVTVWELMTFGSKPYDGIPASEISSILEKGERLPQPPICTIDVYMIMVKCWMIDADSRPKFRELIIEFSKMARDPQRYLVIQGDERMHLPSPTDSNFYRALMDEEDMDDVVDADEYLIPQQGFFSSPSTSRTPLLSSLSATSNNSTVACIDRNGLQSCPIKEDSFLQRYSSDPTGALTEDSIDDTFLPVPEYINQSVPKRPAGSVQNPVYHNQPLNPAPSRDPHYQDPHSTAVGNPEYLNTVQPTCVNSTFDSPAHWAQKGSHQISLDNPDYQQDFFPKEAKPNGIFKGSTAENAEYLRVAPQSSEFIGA
- PROTOCOL_DETAILS: Biochemical EGFR kinase inhibition assay (Lance Ultra TR-FRET), wildtype
- CONDITION_SET: IC50 WT (nM), 100 μM ATP
# reported IC50; entries follow

Below are worked cases with known answers.
INSERT INTO assay_data (structure_string, value_observed) VALUES
  ('C[C@]1(O)CC[C@@H](Nc2cc(Nc3ccnc(-c4cnn(S(=O)(=O)C5CC5)c4)n3)ncc2C#Cc2cnn(CC(F)F)c2)CC1', '> 10000 nM'),
  ('CN(C)C[C@H]1CC[C@H](COc2cc(Nc3ccnc(-c4cnn(S(=O)(=O)C5CC5)c4)n3)ncc2C#Cc2cnn(C)c2)CC1', '> 10000 nM');

We next turn to a different compound, shown below.
Prompt: Let me know recorded IC50 for `CN(C)CCC1CCN(c2cc(Nc3ccnc(-c4cnn(S(=O)(=O)C5CC5)c4)n3)ncc2C#Cc2cnn(CC(F)(F)F)c2)CC1` , thanks.
Completion: 844 nM

----------
- MEASURED_TARGET: EGFR wildtype (WT) (Homo sapiens)
- PROTOCOL_DETAILS: Biochemical EGFR kinase inhibition assay (Lance Ultra TR-FRET), wildtype
- CONDITION_SET: IC50 WT (nM), 100 μM ATP
RECORDED_ENDPOINT: IC50

INSERT INTO results (compound, value_observed) VALUES
  ('CS(=O)(=O)N1CCC(C#Cc2cnc(Nc3ccnc(-c4cnn(S(=O)(=O)C5CC5)c4)n3)cc2NC[C@H]2CC[C@H](CO)CC2)CC1 [Example 388]', '> 10000 nM'),
  ('Cn1cc(C#Cc2cnc(Nc3ccnc(-c4cnn(S(=O)(=O)C5CC5)c4)n3)cc2N[C@@H]2CCC[C@@H](O)C2)cn1 [Example 76]', '> 10000 nM'),
  ('COC1CCN(c2cc(Nc3ccnc(-c4cnn(S(=O)(=O)C5CC5)c4)n3)ncc2C#Cc2cnn(C)c2)CC1 [Example 15]', '661 nM'),
  ('CC1(CO)CCN(c2cc(Nc3ccnc(-c4cnn(S(=O)(=O)C5CC5)c4)n3)ncc2C#Cc2cnc(CN3CCOCC3)s2)CC1 [Example 192]', '1480 nM'),
  ('O=C(c1ccc(C#Cc2cnc(Nc3ccnc(-c4cnn(S(=O)(=O)C5CC5)c4)n3)cc2NC[C@H]2CC[C@H](CO)CC2)cc1)N1CCC(O)CC1 [Example 443]', '> 10000 nM');

Kindly consider the entry below.
Prompt: Identify IC50 associated with the compound CC(C)n1cc(C#Cc2cnc(Nc3ccnc(-c4cnn(S(=O)(=O)C5CC5)c4)n3)cc2OC[C@H]2CC[C@H](CN(C)C)CC2)cn1 [Example 59]
Completion: > 10000 nM

----------
- MEASURED_TARGET: EGFR Del19/T790M/C797S (Homo sapiens, UniProt P00533, C797S/DEL746-750/T790M)
- Sequence (P00533 with tags, fused parts or gaps DEL746-750/T790M/C797S): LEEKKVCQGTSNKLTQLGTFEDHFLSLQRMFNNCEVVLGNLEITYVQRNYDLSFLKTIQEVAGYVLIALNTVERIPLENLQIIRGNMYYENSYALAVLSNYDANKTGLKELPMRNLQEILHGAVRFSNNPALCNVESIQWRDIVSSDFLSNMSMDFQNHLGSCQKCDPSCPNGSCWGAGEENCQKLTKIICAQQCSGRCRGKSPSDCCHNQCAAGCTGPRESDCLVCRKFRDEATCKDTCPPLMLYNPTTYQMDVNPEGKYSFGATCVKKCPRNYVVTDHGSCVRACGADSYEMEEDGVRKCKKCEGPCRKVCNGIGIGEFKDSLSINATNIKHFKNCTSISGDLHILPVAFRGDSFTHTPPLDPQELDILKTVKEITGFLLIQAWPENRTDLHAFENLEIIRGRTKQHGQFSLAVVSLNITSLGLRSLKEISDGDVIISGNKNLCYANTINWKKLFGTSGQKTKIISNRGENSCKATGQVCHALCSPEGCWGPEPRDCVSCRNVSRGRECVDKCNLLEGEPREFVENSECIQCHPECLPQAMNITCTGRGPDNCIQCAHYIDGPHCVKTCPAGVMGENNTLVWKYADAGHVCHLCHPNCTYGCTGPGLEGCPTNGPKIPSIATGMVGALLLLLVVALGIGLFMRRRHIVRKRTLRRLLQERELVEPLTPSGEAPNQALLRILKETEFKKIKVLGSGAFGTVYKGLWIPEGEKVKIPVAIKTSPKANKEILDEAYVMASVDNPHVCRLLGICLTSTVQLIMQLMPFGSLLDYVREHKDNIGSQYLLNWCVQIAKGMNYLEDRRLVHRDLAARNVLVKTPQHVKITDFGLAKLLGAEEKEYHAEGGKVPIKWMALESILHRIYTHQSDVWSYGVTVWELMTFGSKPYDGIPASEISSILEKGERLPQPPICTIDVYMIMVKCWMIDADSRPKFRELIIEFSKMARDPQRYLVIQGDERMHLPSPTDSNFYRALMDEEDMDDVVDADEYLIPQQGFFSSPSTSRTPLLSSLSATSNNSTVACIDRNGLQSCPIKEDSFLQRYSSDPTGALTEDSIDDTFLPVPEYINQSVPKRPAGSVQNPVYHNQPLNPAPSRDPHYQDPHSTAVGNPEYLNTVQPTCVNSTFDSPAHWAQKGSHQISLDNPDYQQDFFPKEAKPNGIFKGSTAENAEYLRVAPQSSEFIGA
- PROTOCOL_DETAILS: Biochemical EGFR kinase inhibition assay (Lance Ultra TR-FRET), triple mutant del19/T790M/C797S
- CONDITION_SET: Km ATP; read-out: IC50 Del19/T790M/C797S (nM), Km ATP
- Procedure: Biochemical EGFR kinase assays were conducted using Lance Ultra time-resolved fluorescence resonance energy transfer (TR-FRET) technology from Perkin-Elmer. […] Each kinase reactions were incubated at room temperature for 1 hour and then stopped by the addition of 4 μL of stop solution (10 mM EDTA). […] After 60 minutes incubation at room temperature the LANCE signal was measured on an EnVision Multilabel Reader (Perkin-Elmer). […]
RECORDED_ENDPOINT: IC50

INSERT INTO results (structure_string, value_observed) VALUES
  ('O=S(=O)(C1CC1)n1cc(-c2nccc(Nc3cc(N[C@H]4CC[C@@H](CO)CC4)c(C#Cc4cnn(CC(F)(F)F)c4)cn3)n2)cn1', '1.6 nM'),
  ('CC1(CO)CCN(c2cc(Nc3ccnc(-c4cnn(S(=O)(=O)C5CC5)c4)n3)ncc2C#CC2COC2)CC1', '0.3 nM');

Let's switch to this compound now.
Prompt: Please report IC50 for the following compound: `CNCC1(F)CCN(c2cc(Nc3ccnc(-c4cnn(S(=O)(=O)C5CC5)c4)n3)ncc2C#Cc2cnn(C)c2)CC1`
Completion: 0.2 nM
